Assay: qHTS of Nrf2 Activators: Hit Validation in Primary Assay; further: nearly all actives have a fitted effect of over 70% in size
Conditions: Nrf2/ARE reporter cell assay; activation; series mostly up to 46.1 µM
Screen size: about 1,100 compounds; about 860 (78%) were called active. Not shown: some 19% with an inconclusive outcome. The call rests on the fitted dose curve; in most records, active means well fitted activation curve with a large enough effect; inconclusive means small, poorly fitted or top-dose-only effect; inactive means flat fitted curve, though single readings scatter. So high a share suggests a set chosen from earlier hits. The list shows a part of the results.
Labels: yes (active), no (inactive)

{"columns": ["compound", "answerLabel"],
 "data": [
  ["CNc1ccccc(C(=O)/C=C/c2ccccc2OC)c1=O", "yes"],
  ["O=c1oc2ccc(Cl)cc2nc1/C=C(\\O)c1cccs1", "yes"],
  ["O=[N+]([O-])c1ccc(Cl)c(/C=N/n2c(-c3ccncc3)n[nH]c2=S)c1", "yes"],
  ["O=c1oc2ccc(Cl)cc2nc1/C=C(\\O)c1ccco1", "yes"],
  ["COc1ccc(-c2cc3ccccc3c(=O)o2)cc1", "yes"],
  ["Clc1ccc(/C=N/Nc2nnc(Cl)c3ccccc23)cc1", "yes"],
  ["COc1ccccc1C(=O)COC(=O)c1cccs1", "yes"],
  ["O=C1c2cccc3cccc(c23)C(=O)N1CCCN(C(=O)c1cccs1)c1cccc(F)c1", "yes"],
  ["CCOC(=O)c1sc(NC(=O)c2ccccc2F)c(C(N)=O)c1C", "yes"],
  ["COC(=O)c1ccccc1NC(=O)c1cccs1", "yes"],
  ["Cc1sc2c(c1C)C(=O)NC(c1ccccc1F)N2 (stereo not given)", "yes"],
  ["c1ccc(Cc2c(-c3ccco3)nc3c4ccccc4ccn23)cc1", "yes"],
  ["O=[N+]([O-])c1ccc(NN=Cc2ccco2)nc1", "yes"],
  ["O=C(Cn1cnc2ccccc21)N/N=C/C(Br)=C/c1ccccc1", "yes"],
  ["CC(C)(C)/C(O)=C/c1nc2cc(Cl)ccc2oc1=O", "yes"],
  ["O=C(/C=C/c1ccco1)NC(=S)Nc1nc(-c2ccc(Cl)cc2)cs1", "no"],
  ["COc1cc(NC(=S)Nc2ccccn2)c(OC)cc1Cl", "yes"],
  ["c1ccc(-c2nc3c4ccccc4ccn3c2Cc2ccsc2)cc1", "yes"],
  ["Cc1ccc(C)c(-c2nnc(NC(=O)c3ccc([N+](=O)[O-])o3)o2)c1", "yes"],
  ["O=C1C(=C2CCc3ccccc32)Cc2ccccc21", "yes"],
  ["O=C(Nc1cccc2nsnc12)c1cccs1", "yes"],
  ["N#Cc1c(-c2ccco2)cc(-c2ccccc2)[nH]c1=O", "yes"],
  ["CC(C)=NNc1cnnc2ccc([N+](=O)[O-])cc12", "yes"],
  ["O=C(Nc1ccc2nsnc2c1)c1cccs1", "yes"],
  ["COC(=O)c1c(NC(=O)c2ccccc2)sc(C(N)=O)c1C", "yes"]
]}

----------
The reader will find reported Potency values listed item by item below.
Experiment: qHTS of Nrf2 Activators: Hit Validation in Primary Assay; further: nearly all actives have a fitted effect of over 70% in size; further: potency means the concentration at half of the fitted maximal effect
Details: Nrf2/ARE reporter cell assay; activation; series mostly up to 46.1 µM
About 860 (78%) of roughly 1,100 compounds were called active. About 19% were inconclusive and are not listed. The set was probably picked from earlier hits. The list shows a part of the results.

{"columns": ["molecule", "Potency"],
 "data": [
  ["O=C(NCCc1ccccn1)c1c(-c2ccsc2)sc2ccccc12", "2310 nM (active)"],
  ["Cc1ccc(S(=O)(=O)c2nc(S(C)(=O)=O)sc2N2CCC3(CC2)OCCO3)cc1", "10300 nM (active)"],
  ["Cc1cc(C)cc(NC(=O)/C=C/c2ccc([N+](=O)[O-])s2)c1", "2310 nM (active)"],
  ["Cc1ccc(NC(=O)/C=C/c2ccc([N+](=O)[O-])s2)cc1", "2310 nM (active)"],
  ["O=C(NNC(=O)c1nc(Cl)ccc1Cl)c1ccc(F)cc1", "11600 nM (active)"],
  ["COc1ccc2c(c1)C1=NN(/C(C)=C/C(C)=O)C(c3cccc(F)c3)C1CC2 (stereo unspecified)", "5800 nM (active)"],
  ["CCn1nc(C)c(Br)c1-c1nc(-c2cccc(C)c2)no1", "8200 nM (active)"],
  ["O=C(C=Cc1ccccc1Cl)c1ccccc1", "18400 nM (active)"],
  ["CC(C)Nc1ccc(-c2nc(-c3ccco3)no2)cc1[N+](=O)[O-]", "2310 nM (active)"],
  ["CNc1ccc(-c2nc(-c3ccco3)no2)cc1[N+](=O)[O-]", "1840 nM (active)"],
  ["c1ccc(N2CC3COc4ccccc4C3=N2)cc1 (stereo unspecified)", "2590 nM (active)"]
]}
